- Target or test system: T1, hK1 (human tissue kallikrein 1), recombinant (human, UniProt P06870 25-262)
- T1 construct: Expressed in P. pastoris from KLK1 cDNA and purified; enzymatically active; also called KLK1; Recombinant (Pichia) Kallikrein
- Assay method text: SPR
Measured metric: koff (s⁻¹)
Value expressed in s⁻¹; do not type the unit.

Prompt: Provide measured koff value, entry: M0132-D02 (Fab, V domains shown) VH: EVQLLESGGGLVQPGGSLRLSCAASGFTFSHYPMDWVRQAPGKGLEWVSYIGPSGGSTRYADSVKGRFTISRDNSKNTLYLQMNSLRAEDTAVYYCARHVPPGTWGQGTLVTVSS VL: AQSALTQPRSVSGSPGQSVTISCTGTSSDVNYVSWYQQHPGKAPKLMIYAVTKRPSGVPDRFSGSKSGNTASLTVSGLQAEDEADYYCSSYAGSNNLVFGGGTKLTVLG
Response: 0.00303

Prompt: Provide measured koff value, entry: M0098-E01 (Fab, V domains shown) VH: EVQLLESGGGLVQPGGSLRLSCAASGFTFSMYGMTWVRQAPGKGLEWVSGISPSGGRTYYADSVKGRFTISRDNSKNTLYLQMNSLRAEDTAVYYCAKHRRDYVWWTYGMDVWGQGTTVTVSS VL: DIQMTQSPATLSLSPGERATLSCRASQSVSGFLAWYQQKPGQAPRLLIYDASNRATGIPARFSGSGSGTDFTLTITRLEPEDFAVYYCQQYGDSSPITFGPGTRLEIKR
Response: 0.00101

Prompt: Provide measured koff value, entry: M0112-D07 (Fab, V domains shown) VH: EVQLLESGGGLVQPGGSLRLSCAASGFTFSFYSMSWVRQAPGKGLEWVSRIRPSGGRTDYADSVKGRFTISRDNSKNTLYLQMNSLRAEDTAVYYCARDRLYYYGSGSYYYGAFDIWGQGTMVTVSS VL: DIQMTQSPSSLSASVGDRVTITCRASQTIRTYLNWYQQKPGIAPKFLIYDASNLQTGVPSRFSGSGSGTHFTLTISSLQPEDFGTYYCQQSYGGPPTFGRGTKIEIKR
Response: 0.000781

Prompt: Provide measured koff value, entry: M0098-E09 (Fab, V domains shown) VH: EVQLLESGGGLVQPGGSLRLSCAASGFTFSRYGMQWVRQAPGKGLEWVSYIYPSGGGTVYADSVKGRFTISRDNSKNTLYLQMNSLRAEDTAVYYCARRVAVAGSWYYYYYGMDVWGQGTTVTVSS VL: DIQMTQSPSSVSASVGDSVTISCWTIYDISSWLAWYQQRPGQAPKLLIYAASRLATGVPSRFRGSGSGTDFTLTITNLQPEDVATYYCQQTKDFPLTFGGGTRVDLKR
Response: 0.00159

Prompt: Provide measured koff value, entry: M0104-D12 (Fab, V domains shown) VH: EVQLLESGGGLVQPGGSLRLSCAASGFTFSHYAMFWVRQAPGKGLEWVSSIWPSGGKTMYADSVKGRFTISRDNSKNTLYLQMNSLRAEDTATYYCARGGSYLAFDIWGQGTMVTVSS VL: DIQMTQSPSSLSASVGDRVTITCRASLSVSGYLNWYQHKPGRAPNLLIYATSSLQSGVPSRFSGSGSGTDFTLTVSSLQPEDLATYYCQQSYSSPYTFGQGTKVEIKG
Response: 0.0192
